Target: T1, human IL2Rγ (endogenously expressed on cells) (human, UniProt P31785 23-369)
T1 sequence (looked up): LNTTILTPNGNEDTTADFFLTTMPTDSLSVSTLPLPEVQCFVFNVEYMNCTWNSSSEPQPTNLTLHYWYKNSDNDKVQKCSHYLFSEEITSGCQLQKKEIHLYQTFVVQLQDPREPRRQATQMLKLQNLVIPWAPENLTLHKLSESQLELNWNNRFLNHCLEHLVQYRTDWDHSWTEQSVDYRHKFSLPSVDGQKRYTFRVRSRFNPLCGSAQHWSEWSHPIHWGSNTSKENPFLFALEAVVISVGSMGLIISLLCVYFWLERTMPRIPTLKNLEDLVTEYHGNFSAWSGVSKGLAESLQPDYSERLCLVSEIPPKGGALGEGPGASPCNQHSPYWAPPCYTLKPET
Test: cell-based or functional assay
Consider the following binders and their measured Max Inhibition (%); IL-7 50 pM; NK92/hIL7R/STAT3-luc readings.
measureName: Max Inhibition (%); IL-7 50 pM; NK92/hIL7R/STAT3-luc

binder	readoutNumber
H4H12884P (antibody, human IgG4 S228P, kappa, V domains shown, human IgG4) VH: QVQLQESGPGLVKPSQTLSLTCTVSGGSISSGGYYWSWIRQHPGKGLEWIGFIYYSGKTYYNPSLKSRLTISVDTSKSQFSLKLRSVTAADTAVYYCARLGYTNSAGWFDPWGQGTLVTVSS VL: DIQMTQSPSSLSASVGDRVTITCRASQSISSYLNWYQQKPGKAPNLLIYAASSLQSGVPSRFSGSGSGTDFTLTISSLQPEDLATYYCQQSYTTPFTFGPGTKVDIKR	34
H4H12857P (antibody, human IgG4 S228P, kappa, V domains shown, human IgG4; also called REGN9432) VH: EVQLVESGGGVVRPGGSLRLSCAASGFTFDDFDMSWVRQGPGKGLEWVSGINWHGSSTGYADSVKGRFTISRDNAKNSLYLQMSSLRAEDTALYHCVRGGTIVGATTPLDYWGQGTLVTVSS VL: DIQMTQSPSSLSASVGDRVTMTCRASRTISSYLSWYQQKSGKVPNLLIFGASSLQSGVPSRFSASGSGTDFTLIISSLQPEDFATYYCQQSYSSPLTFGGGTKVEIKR	94
H4H12871P (antibody, human IgG4 S228P, kappa, V domains shown, human IgG4; also called REGN9434) VH: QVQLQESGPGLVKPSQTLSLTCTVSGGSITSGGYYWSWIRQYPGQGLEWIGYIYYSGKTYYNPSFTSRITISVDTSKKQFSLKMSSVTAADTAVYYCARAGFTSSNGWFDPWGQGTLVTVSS VL: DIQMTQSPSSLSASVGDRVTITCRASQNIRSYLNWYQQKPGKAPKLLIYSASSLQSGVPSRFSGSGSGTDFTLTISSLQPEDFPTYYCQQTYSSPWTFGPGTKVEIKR	36
H4H12863P (antibody, human IgG4 S228P, kappa, V domains shown, human IgG4) VH: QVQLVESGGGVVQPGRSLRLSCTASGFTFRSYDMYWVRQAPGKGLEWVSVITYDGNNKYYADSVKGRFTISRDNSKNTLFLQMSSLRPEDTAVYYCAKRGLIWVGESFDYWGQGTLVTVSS VL: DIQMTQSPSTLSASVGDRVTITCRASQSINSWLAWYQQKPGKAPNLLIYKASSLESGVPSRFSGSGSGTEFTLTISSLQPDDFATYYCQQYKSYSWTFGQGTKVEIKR	42
H4H12874P (antibody, human IgG4 S228P, kappa, V domains shown, human IgG4) VH: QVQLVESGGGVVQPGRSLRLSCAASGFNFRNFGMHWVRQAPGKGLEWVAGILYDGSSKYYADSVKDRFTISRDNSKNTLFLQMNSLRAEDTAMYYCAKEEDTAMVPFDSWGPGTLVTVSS VL: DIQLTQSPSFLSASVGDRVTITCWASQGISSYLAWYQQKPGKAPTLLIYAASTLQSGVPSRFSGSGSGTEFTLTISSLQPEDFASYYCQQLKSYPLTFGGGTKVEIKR	93
